apparent KD of K4 kissing-loop reporter for assorted sequences
Test system: K4 kissing-loop RNA reporter;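 also: bound reporter read as fluorescence of individual clusters on recovered sequencing chips by microscopy, with normalized cluster intensities fitted with a binding model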
test_protocol: apparent KD of K4 kissing-loop reporter; higher = weaker reporter binding
condition_label: Eterna round: R107; input ligand: arginine 13.2 mM
Report only the number, with the unit nM understood.

Worked cases, answers included:
seq_string | apparent KD of K4 kissing-loop reporter / nM
GCAGUGAUGUUGCGGAUGUACAGUGGCGUGCGAGGACCGGUACGGCCGCCACUCGUACAGACCAAGCUAAUACAUCGAUAGGUGA [whbob_SS_Tryp_A_m3] | 247
AAGUGUGUGGCGGCCGCCACUAGAAUCCAGUGAUGUUGGAGUAAUCAAAUAAAUGAUAAUCAACAUAGGACCGGGCCAUAUAGAA [Same State - Tryptophan B (Freestyle 3)] | 307
UGAUACCAGACUGAUACCAGCAGUGAUGUUGCUGAUAAGGGUAGAGUCAAAGACUCUACCUGCCCUUGGCAGCAGUCUGGUAUCU [TheoBX 14 #SwitchBubble #StaticStem] | 146
AGCGACUCGAAAGGGUCGCGGCUAAGGGAUACCAGUGAUGUUGGUCACCCUUGGCAGCCCAGAAGCCAAGCCACCAAAGGUGGCA [Omei KL Theo A Exc A v10] | 99

Next, consider the following sequence.
Report the value of apparent KD of K4 kissing-loop reporter obtained on K4 kissing-loop RNA reporter for AAAACUCGGUAGUGAUGUUAUUGAGUGAACAAGGAUAUCUAUGAUAAGAGAAGGUGUAAGUUAAGCGUAUUUCGGCCUGUACAAU [theeternabot_sameState_KL_FMN_A_34] .
101

The values you see were collected from the supplement of paper PMC9170038.
